The measurements presented in this section are drawn from PubChem BioAssay (NCI).

- Test system: IGROV1 ovarian
- ASSAY_NOTES: NCI tumour cell line growth inhibition, 48 h
A collection of compounds and their measured TGI

Below, 5 compounds whose answers are already recorded.
COMPOUND | ASSAY_TARGET | MEASURED_PROPERTY | READOUT_VALUE
CCOC(=O)C1=C(C)N(c2ccc(Cl)cc2)C2(O)C=CC(=O)C3=C(O)c4ccccc4C(=O)C312 (stereo not given) | IGROV1 ovarian | TGI | 12.9 µM
O/N=C(\CC(O)(C(F)(F)F)C(F)(F)F)c1cccs1 | IGROV1 ovarian | TGI | > 10 µM
N#Cc1c2ccccc2c(Cc2ccc3c(c2)OCCOCCOCCOCCOCCO3)c2ccccc12 | IGROV1 ovarian | TGI | 19.5 µM
CCN(CC)C1Oc2cc3c(cc2C(c2cc(OC)c(O)c(OC)c2)C1C)OCO3 (stereo not given) | IGROV1 ovarian | TGI | 50 µM
Cn1c(=O)c2ccccc2[n+]2c(-c3cccc([N+](=O)[O-])c3)csc12 | IGROV1 ovarian | TGI | > 100 µM

Lookup: # return recorded TGI for input COc1ccc(-c2sc(Br)c3c2C(=O)C2OC(=O)NC32)cc1OC (stereo not given)
Found: > 100 µM

Lookup: Return reported TGI. Input compound: CCO/C(O)=C(/C(=N)N1CCOCC1)C(=O)NC(C)C
Found: > 100 µM

Lookup: Return TGI (reported value) for this compound: C/C(O)=C(\C=N\C(=S)N=Nc1c(O)[nH]c2ccccc12)C(=O)Nc1ccccc1C
Found: > 100 µM
